# Test system: ALL-1 (Ph+ adult ALL, B-lineage) cell line
# Method: Flow cytometric Annexin V-FITC/PI apoptosis assay
# Format: cell-based, human
# Condition Parameters: Homo sapiens, read-out: IC50 (apoptosis)
Endpoint: IC50 (µM)
Expressed in µM, but write only the number.

Q) Provide the documented IC50 with ALL-1 (Ph+ adult ALL, B-lineage) cell line as the system for CCC1CC23[C@H]([C@H](Oc4nnc(O[C@@H](c5ccnc6ccc(OC)cc56)[C@H]5CC6CCN5CCC6(O)CC)c5ccccc45)c4ccnc5ccc(OC)cc45)N2CC[C@@H]13 (stereo partly shown)
A) 7.3

* * *

# Tested on: LOUCY (adult T-lineage ALL) cell line
# Method: Flow cytometric Annexin V-FITC/PI apoptosis assay
# Format: cell-based, human
# Condition Parameters: Homo sapiens, read-out: IC50 (apoptosis)
Endpoint: IC50 (nM)
Answer with a number only, understood to be in nM.

Q) For the compound shown here, CCC1CC23[C@H]([C@H](Oc4nnc(O[C@@H](c5ccnc6ccc(OC)cc56)[C@H]5CC6CCN5CCC6(O)CC)c5ccccc45)c4ccnc5ccc(OC)cc45)N2CC[C@@H]13 (stereo partly shown) , give the reported IC50.
A) 1500
